# system-name: KDM5B (PLU-1) (Homo sapiens, UniProt Q9UGL1)
# Sequence (Q9UGL1 1-809): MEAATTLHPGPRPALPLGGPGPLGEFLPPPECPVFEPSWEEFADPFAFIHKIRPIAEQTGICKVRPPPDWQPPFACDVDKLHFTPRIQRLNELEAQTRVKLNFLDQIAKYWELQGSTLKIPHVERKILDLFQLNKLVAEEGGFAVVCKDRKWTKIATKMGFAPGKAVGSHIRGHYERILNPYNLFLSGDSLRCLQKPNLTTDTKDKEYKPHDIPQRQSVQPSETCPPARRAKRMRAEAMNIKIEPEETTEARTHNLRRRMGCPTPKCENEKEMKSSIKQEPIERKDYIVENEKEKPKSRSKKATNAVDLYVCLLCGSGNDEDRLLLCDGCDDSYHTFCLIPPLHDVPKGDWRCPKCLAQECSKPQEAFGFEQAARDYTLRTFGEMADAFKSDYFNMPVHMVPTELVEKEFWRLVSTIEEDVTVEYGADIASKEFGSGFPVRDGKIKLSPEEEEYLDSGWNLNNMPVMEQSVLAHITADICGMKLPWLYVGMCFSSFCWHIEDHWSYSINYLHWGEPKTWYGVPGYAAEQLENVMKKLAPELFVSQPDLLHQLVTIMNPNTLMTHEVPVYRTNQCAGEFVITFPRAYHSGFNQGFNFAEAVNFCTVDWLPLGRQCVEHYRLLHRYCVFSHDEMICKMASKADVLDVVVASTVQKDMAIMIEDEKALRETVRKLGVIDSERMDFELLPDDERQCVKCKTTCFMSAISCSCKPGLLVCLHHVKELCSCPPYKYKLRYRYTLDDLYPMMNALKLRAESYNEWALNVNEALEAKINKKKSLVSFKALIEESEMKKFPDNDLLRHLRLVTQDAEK
# assay-method-text: Histone lysine demethylase AlphaLISA assay, KDM5B
# Type: biochemical
pIC50: −log10 of the molar value.
test-readout: pIC50

mol	result
CCOC(=O)c1ccccc1OC(=O)NCc1ccnc(CNCC(=O)N(CC)CCN(C)C)c1	5.60 to 6.60

---

# System: OVCAR-3
# assay-method-text: Cell proliferation assay OVCAR-3
# Format: cell-based
# stated-conditions: Homo sapiens; OVCAR-3, Ovary; method of Example 5
pEC50: −log10 of the molar value.

molecule	pEC50
CCN(CCN(C)C)C(=O)CNCc1cc(CNC(=O)C(F)(F)F)ccn1 [Compound 25]	< 5.60
